- assay_notes: Cytotoxicity against human 518A2 cells after 96 hrs by SRB assay
- Assay type: functional, cell-based
- particulars: 518A2, 96 h
property: IC50 (nM)
Respond numerically; units are nM and should not be typed.

// field: IC50; key: `COc1ccc(/C=C/C(=O)c2cc(OC)c(OC)c(OC)c2)cc1O` ; value = 33.6
